# TEST_NAME: chemical genetic growth profiling, strain panel (AID 1159580);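 note: tested at 20 µM; growth read once vehicle control cultures reached saturation at 30 °C; 1 = growth at the plate median or of vehicle wells; lower values mean less growth of the strain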
# CONDITION_PARAMETERS: S. cerevisiae deletion strains, growth OD, locus YPR119W, strain clb2, active compounds read low
About 2,000 (36%) of roughly 5,500 compounds were called active. Roughly 18% stayed inconclusive and do not appear here. The list shows a part of the results.
// NB: equality with 1 counts as Criterion not met; only normalized growth strictly below is Criterion met

Previously resolved entries follow.
1. COc1cc(O)c2c(=O)cc(C)oc2c1CC=C(C)C; Criterion met
2. COc1c(O)cc2oc3cc(O)c(CC=C(C)C)c(O)c3c(=O)c2c1CC=C(C)C; Criterion met
3. CN1C2CC3C[C@H]1C(O3)C2O (stereo partly drawn); Criterion not met
4. CC1(C)C2CC[C@]3(C)C(C(=O)C=C4[C@@H]5C[C@@](C)(C(=O)O)CC[C@]5(C)CC[C@]43C)[C@@]2(C)CC[C@@H]1O (stereo partly drawn); Criterion not met

-- ask Hi there! Is normalized growth for COC(=O)COc1cc(Cl)c(Cl)cc1Cl below 1, do you know?
-- reply Criterion met

-- ask Hi there! Is normalized growth for CC(C)=CCc1c(O)cc(C)oc1=O below 1, do you know?
-- reply Criterion met

====

Provide the recorded normalized growth for the entries that follow.
# TEST_NAME: chemical genetic growth profiling, strain panel (AID 1159580)
# CONDITION_PARAMETERS: S. cerevisiae deletion strains, growth OD, locus YNL271C, strain bni1, active compounds read low
Among all 5,500 compounds or so, about 2,000 (36%) were called active. Inconclusive results (about 18%) are left out. Some of the results follow.
Answers are plain numbers.

Worked cases, normalized growth given:
1) COc1cccc2c1CCC1CC(=O)CCC21C (configuration not stated); 0.962
2) CC(C)=CCc1c(O)cc2oc(C)cc(=O)c2c1O; 0.98
3) CC1(C)C2CC[C@]3(C)C(C(=O)C=C4[C@@H]5C[C@@](C)(C(=O)O)CC[C@]5(C)CC[C@]43C)[C@@]2(C)CC[C@@H]1O (some centres not stated); 0.994
4) COc1ccc2c(c1)OC[C@@H](Cc1ccc(OC)c(OC)c1)[C@H]2O; 0.977
5) COc1cc(OC)c2c(c1)O[C@H](c1ccc(OC)c(OC)c1)[C@@H](O)C2; 1.01

Hey, can you go through the list below and give me normalized growth for every item?
1. COc1ccc2c(c1)OC[C@@H](Cc1ccc(OC)c(OC)c1)[C@@H]2O
2. O=c1ccc2cc(O)c(O)cc2o1
3. COc1ccc(-c2coc3c(OC)c(O)ccc3c2=O)cc1
4. CCCCOc1ccc(CC(=O)NO)cc1
5. COc1ccc2c(c1)C1(C)CCC(=O)CC1CC2 (configuration not stated)
6. CC1(C)C2CC[C@]3(C)C(C(=O)C=C4[C@@H]5C[C@@](C)(C(=O)O)CC[C@]5(C)CC[C@]43C)[C@@]2(C)CC[C@@H]1OC(=O)CCC(=O)O (some centres not stated)

-- reply
1. 0.992
2. 0.99
3. 0.945
4. 1.01
5. 0.986
6. 0.983

====

# TEST_NAME: chemical genetic growth profiling, strain panel (AID 1159580)
# CONDITION_PARAMETERS: S. cerevisiae deletion strains, growth OD, locus YJR066W, strain TOR1, active compounds read low
Among all 5,500 compounds or so, about 2,000 (36%) were called active. Another 18% or so got no clear call; they are omitted. The list shows a part of the results.
REPORTED_PROPERTY: normalized growth
One number for each entry.

Worked cases, normalized growth given:
1) CCC1(C)CC(=O)NC1=O (configuration not stated); 0.95
2) COc1ccc(-c2coc3c(O)c(OC)ccc3c2=O)cc1; 0.959
3) CC1(C)C2CC[C@]3(C)C(C(=O)C=C4[C@@H]5C[C@@](C)(C(=O)O)CC[C@]5(C)CC[C@]43C)[C@@]2(C)CC[C@@H]1O (some centres not stated); 0.953
4) C[n+]1ccccc1/C=N\O; 0.932
5) COC(=O)COc1cc(Cl)c(Cl)cc1Cl; 0.842

Hey, can you go through the list below and give me normalized growth for every item?
1. Cc1ccc2c(c1)CC[C@H]1CC(=O)CC[C@]21C
2. O=[N+]([O-])O[C@@H]1CO[C@H]2[C@@H]1OC[C@@H]2O

-- reply
1. 0.897
2. 0.955

====

# TEST_NAME: chemical genetic growth profiling, strain panel (AID 1159580);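 note: tested at 20 µM; growth read once vehicle control cultures reached saturation at 30 °C; 1 = growth at the plate median or of vehicle wells; lower values mean less growth of the strain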
# CONDITION_PARAMETERS: S. cerevisiae deletion strains, growth OD, locus YEL037C, strain rad23
Among all 5,500 compounds or so, about 2,000 (36%) were called active. Roughly 18% stayed inconclusive and do not appear here. Cut-off read from the data, not from the text of the source: active = normalized growth mostly below about 0.91 (no sharp cut-off); inconclusive = no clear call, values can overlap the other calls; inactive = mostly above about 0.92. This is one part of the list.
Valid outcomes are listed here; reply with one: TRUE (active), FALSE (inactive)

-- ask What is the recorded call for this compound in the test? CC(C)(C)CC(C)(C)c1ccc(OCCOCC[N+](C)(C)Cc2ccccc2)cc1
-- reply TRUE

-- ask What is the recorded call for this compound in the test? CC(C)[C@H](N)C(=O)OCCOCn1cnc2c(=O)[nH]c(N)nc21
-- reply FALSE

-- ask What is the recorded call for this compound in the test? COC(=O)[C@@H]1C(O)CC[C@H]2CN3CCc4c([nH]c5ccccc45)[C@@H]3C[C@@H]21 (stereo partly specified)
-- reply FALSE

-- ask What is the recorded call for this compound in the test? CNc1ccccc1C(=O)N1CCc2c([nH]c3ccccc23)C1=O
-- reply FALSE

-- ask What is the recorded call for this compound in the test? Cc1cc(=O)c2c(O)c(C)c(O)cc2o1
-- reply FALSE

-- ask What is the recorded call for this compound in the test? COc1ccc(-c2cc(=O)c3c(O)cc(OC)c(OC)c3o2)c(OC)c1
-- reply TRUE

-- ask What is the recorded call for this compound in the test? COc1ccc(C(=O)c2ccccc2)c(O)c1
-- reply TRUE

-- ask What is the recorded call for this compound in the test? COC(=O)C1[C@H]2C[C@H]3c4[nH]c5ccccc5c4CCN3C[C@@H]2CC[C@@H]1O (stereo partly specified)
-- reply FALSE

-- ask What is the recorded call for this compound in the test? COc1cc(O)c2c(=O)cc(C)oc2c1CC=C(C)C
-- reply FALSE

-- ask What is the recorded call for this compound in the test? COC1C(O)C(O)C(O)[C@@H](O)C1O (stereo partly specified)
-- reply FALSE

-- ask What is the recorded call for this compound in the test? CCCCCCCCCCCCC[N+](C)(C)Cc1ccccc1
-- reply TRUE

====

# TEST_NAME: chemical genetic growth profiling, strain panel (AID 1159580);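 note: tested at 20 µM; growth read once vehicle control cultures reached saturation at 30 °C; 1 = growth at the plate median or of vehicle wells; lower values mean less growth of the strain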
# CONDITION_PARAMETERS: S. cerevisiae deletion strains, growth OD, locus YHR013C, strain ard1
Hit rate of the full screen: of about 5,500 compounds, about 2,000 (36%) were called active. Inconclusive results (about 18%) are left out. Rule as the data show it: active = normalized growth mostly below about 0.91 (no sharp cut-off); inconclusive = no clear call, values can overlap the other calls; inactive = mostly above about 0.92. This is one part of the list.
Valid outcomes are listed here; reply with one: active, inactive

Previously resolved entries follow.
1. CCCCCCCC/C=C/CCCCCCCCOP(=O)([O-])OCC[N+](C)(C)C; active
2. CC1(C)S[C@@H]2[C@H](NC(=O)[C@H](NC(=O)N3CCNC3=O)c3ccccc3)C(=O)N2C1C(=O)O (stereo not given in full); inactive
3. C[N+](C)(C)CCOP(=O)([O-])OP(=O)(O)OC[C@H]1OC(n2ccc(N)nc2=O)[C@H](O)[C@@H]1O (stereo not given in full); inactive
4. CCc1nc(N)nc(N)c1-c1ccc(Cl)cc1; inactive
5. CC(=O)O[C@H]1C(=O)[C@@]2(C)C([C@H](OC(=O)c3ccccc3)[C@]3(O)C[C@H](OC(=O)[C@H](O)[C@@H](NC(=O)c4ccccc4)c4ccccc4)C(C)=C1C3(C)C)[C@]1(OC(C)=O)CO[C@@H]1C[C@@H]2O (stereo not given in full); inactive
6. CCCCCCCCCCCCCCCCOP(=O)([O-])OCC[N+](C)(C)C; active

-- ask What is the recorded call for this compound in the test? NC(N)=NOCC[C@H](N)C(=O)O
-- reply inactive

-- ask What is the recorded call for this compound in the test? CN1CCCC(n2nc(Cc3ccc(Cl)cc3)c3ccccc3c2=O)CC1 (stereo not given)
-- reply inactive

-- ask What is the recorded call for this compound in the test? CN1C2CC3C[C@H]1C(O3)C2O (stereo not given in full)
-- reply inactive

-- ask What is the recorded call for this compound in the test? CCCCOc1ccc(OCCCN2CCOCC2)cc1
-- reply active

====

Provide the recorded normalized growth for the entries that follow.
# TEST_NAME: chemical genetic growth profiling, strain panel (AID 1159580);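 note: tested at 20 µM; growth read once vehicle control cultures reached saturation at 30 °C; 1 = growth at the plate median or of vehicle wells; lower values mean less growth of the strain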
# CONDITION_PARAMETERS: S. cerevisiae deletion strains, growth OD, locus YDR150W, strain NUM1, active compounds read low
Out of some 5,500 compounds screened, about 2,000 (36%) were called active. Another 18% or so got no clear call; they are omitted. Some of the results follow.
Give bare numbers.

Worked cases, normalized growth given:
1. Cc1c(C(=O)O)cc(-c2ccccc2)n1-c1ccccc1; 0.892
2. CC[C@@H](CO)NCCN[C@@H](CC)CO; 1
3. CCCCCCCCCCCCCCSCC(=O)O; 0.997
4. CCOC(=O)/C=C(\C)OP(=O)(OC)OC; 0.989
5. CCCC(C)(SCC(=O)O)SCC(=O)O; 1.03
6. Cc1ccc(Oc2ccc(C)cc2)cc1; 0.999

Please find the next molecule below.
Lookup result for O=C(c1ccccc1)C1CCN(c2ccc(C(F)(F)F)cc2[N+](=O)[O-])CC1 ; measured normalized growth: 1
